// Ki lookup, one value per entry
# assay_system: Coagulation factor VII (Homo sapiens, UniProt P08709)
# Sequence (P08709 whole entry): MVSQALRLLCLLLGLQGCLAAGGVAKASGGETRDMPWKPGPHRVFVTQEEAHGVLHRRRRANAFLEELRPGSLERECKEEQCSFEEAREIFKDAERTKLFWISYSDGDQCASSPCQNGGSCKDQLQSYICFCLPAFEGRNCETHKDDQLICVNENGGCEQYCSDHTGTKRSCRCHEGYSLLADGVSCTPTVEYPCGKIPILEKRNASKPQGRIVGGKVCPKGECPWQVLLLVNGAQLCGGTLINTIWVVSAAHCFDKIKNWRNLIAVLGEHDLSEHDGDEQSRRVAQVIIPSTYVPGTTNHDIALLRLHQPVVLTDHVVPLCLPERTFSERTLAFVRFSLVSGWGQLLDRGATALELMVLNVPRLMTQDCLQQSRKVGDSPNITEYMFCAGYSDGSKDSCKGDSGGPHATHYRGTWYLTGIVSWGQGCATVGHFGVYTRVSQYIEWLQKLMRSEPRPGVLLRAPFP
# protocol_notes: Binding affinity to F7a/TF complex

- compound: "O=C(NCCc1ccccc1)NCc1cccc(-c2cccc(-c3cc4c[nH]ccc-4n3)c2O)c1"
  Ki: "270 nM"
- compound: "COc1ccc(NC(=O)NCc2cccc(-c3cccc(-c4cc5c[nH]ccc-5n4)c3O)c2)c(OC)c1"
  Ki: "28 nM"
- compound: "O=C(NCc1cccc(-c2cccc(-c3cc4c[nH]ccc-4n3)c2O)c1)C(CO)c1cccnc1 (configuration not stated)"
  Ki: "610 nM"
- compound: "O=C(NCc1cccc(-c2cccc(-c3cc4c[nH]ccc-4n3)c2O)c1)Nc1c(F)cccc1F"
  Ki: "33 nM"
- compound: "O=C(NCc1cccc(-c2cccc(-c3cc4c[nH]ccc-4n3)c2O)c1)Nc1cc(F)cc(F)c1"
  Ki: "830 nM"
- compound: "O=C(NCc1cccc(-c2cccc(-c3cc4c[nH]ccc-4n3)c2O)c1)Nc1ccc(F)c(F)c1"
  Ki: "330 nM"
- compound: "O=C(Cc1c(F)cccc1F)NCc1cccc(-c2cccc(-c3cc4c[nH]ccc-4n3)c2O)c1"
  Ki: "9500 nM"

====

# assay_system: Thrombin and coagulation factor VII (Homo sapiens) (UniProt P00734+P08709)
# protocol_notes: Selectivity for F7a/TF over F2a
# Assay type: protein assay
Our labelling divides records by Ratio Ki into ranges: low group: < 60; middle group: ≥ 60 and < 1000; high group: ≥ 1000

- compound: "O=C(NCc1cccc(-c2cccc(-c3cc4c[nH]ccc-4n3)c2O)c1)Nc1ccc(F)cc1F"
  label_value: "high group"
- compound: "O=C(Cc1ccccc1)NCc1cccc(-c2cccc(-c3cc4c[nH]ccc-4n3)c2O)c1"
  label_value: "low group"
- compound: "CCCCCNC(=O)NCc1cccc(-c2cccc(-c3cc4c[nH]ccc-4n3)c2O)c1"
  label_value: "middle group"
- compound: "O=C(NCCc1ccccc1)NCc1cccc(-c2cccc(-c3cc4c[nH]ccc-4n3)c2O)c1"
  label_value: "middle group"
- compound: "O=C(NCc1cccc(-c2cccc(-c3cc4c[nH]ccc-4n3)c2O)c1)Nc1ccccn1"
  label_value: "low group"
- compound: "CC(=O)c1cccc(NC(=O)NCc2cccc(-c3cccc(-c4cc5c[nH]ccc-5n4)c3O)c2)c1"
  label_value: "high group"
- compound: "O=C(NCc1cccc(-c2cccc(-c3cc4c[nH]ccc-4n3)c2O)c1)C(O)c1ccccc1 (centres undefined)"
  label_value: "middle group"
- compound: "CN1CCN(C(=O)NCc2cccc(-c3cccc(-c4cc5c[nH]ccc-5n4)c3O)c2)CC1"
  label_value: "low group"

====

# assay_system: Coagulation factor VII (Homo sapiens, UniProt P08709)
# protocol_notes: Binding affinity to F7a/TF complex

- compound: "O=C(NCc1cccc(-c2cccc(-c3cc4c[nH]ccc-4n3)c2O)c1)N1CCCC1"
  quantity_unit: "nM"
  Ki: 17000
- compound: "CN1CCN(C(=O)NCc2cccc(-c3cccc(-c4cc5c[nH]ccc-5n4)c3O)c2)CC1"
  quantity_unit: "nM"
  Ki: 130000
- compound: "O=C(NCc1cccc(-c2cccc(-c3cc4c[nH]ccc-4n3)c2O)c1)Nc1ccccn1"
  quantity_unit: "nM"
  Ki: 2700
- compound: "O=C(NCc1cccc(-c2cccc(-c3cc4c[nH]ccc-4n3)c2O)c1)Nc1ccc(F)cc1F"
  quantity_unit: "nM"
  Ki: 100
- compound: "O=C(NCc1cccc(-c2cccc(-c3cc4c[nH]ccc-4n3)c2O)c1)C(O)c1ccccc1 (stereo unspecified)"
  quantity_unit: "nM"
  Ki: 850
- compound: "O=C(NCc1cccc(-c2cccc(-c3cc4c[nH]ccc-4n3)c2O)c1)Nc1ccccc1F"
  quantity_unit: "nM"
  Ki: 57

Reference source: ChEMBL document CHEMBL1148511
